Target or system: human JAK2 (a.a. 828-1132) (Homo sapiens)
Construct: JAK2 (a.a. 828-1132); His tag (N); made in house; host or cells: insect cells (baculovirus)
Sequence (O60674 828-1132): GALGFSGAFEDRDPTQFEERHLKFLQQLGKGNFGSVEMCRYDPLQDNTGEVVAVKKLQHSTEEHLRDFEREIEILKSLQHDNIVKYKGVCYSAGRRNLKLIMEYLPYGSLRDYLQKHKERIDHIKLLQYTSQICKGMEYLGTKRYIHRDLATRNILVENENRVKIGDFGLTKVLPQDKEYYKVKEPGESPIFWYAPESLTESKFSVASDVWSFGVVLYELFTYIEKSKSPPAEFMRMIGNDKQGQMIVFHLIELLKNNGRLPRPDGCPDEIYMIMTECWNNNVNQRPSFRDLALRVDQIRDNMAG
Assay info: In vitro JAK kinase assay (HTRF, phosphorylation of a biotinylated peptide), JAK2
Format: biochemical
Condition description: method AA1 (30 μM ATP) or AA2 (1000 μM ATP), not stated per value
Structures can show the parent of a compound that is named as a salt.
Reported IC50 values follow for various compounds
Please reply with the bare figure in nM and do not write the unit itself.

Worked examples, 2 compounds total:
O=C(CC1CCN(c2cccc(F)n2)CC1)Nc1ccc2cc1CCc1cncc(c1)Nc1ncc(Cl)c(n1)N2 [Example A181, tris(trifluoroacetate)] = 81
N#Cc1ccc(NC(=O)N2CCC(C(=O)Nc3ccc4cc3CCc3cccc(c3)Nc3ncc(Cl)c(n3)N4)CC2)cc1 [Example A37, trifluoroacetate] = 11

API: the following record is the query input.
// fetch human JAK2 (a.a. 828-1132) (Homo sapiens) IC50 for CN(C)C(=O)N1CCC(CC(=O)Nc2ccc3cc2CCc2cccc(c2)Nc2ncc(Cl)c(n2)N3)CC1 [Example A80, trifluoroacetate]
4.4
